Each item that follows carries a reported pIC50.
# target desc: UbcH10-Strep (SwissProt O00762) (Homo sapiens)
# Construct: GST with Factor Xa cleavage site (N, cleaved yes); made in house; host or cells: baculovirus, High Five insect cells
# Sequence (O00762 whole entry): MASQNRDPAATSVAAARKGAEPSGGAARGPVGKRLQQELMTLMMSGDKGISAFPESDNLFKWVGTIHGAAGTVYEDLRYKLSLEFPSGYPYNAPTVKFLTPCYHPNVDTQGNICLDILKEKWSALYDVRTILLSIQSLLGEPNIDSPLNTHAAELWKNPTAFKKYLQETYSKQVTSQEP
# protocol: UbcH10 thioester assay
# Type: biochemical
# setup conditions: thioester formation; n=2
# Text: The assays measuring the formation of the thioester intermediate between ubiquitin and the ubiquitin conjugating enzymes Cdc34 (SwissProt P49427) UbcH5 (SwissProt P51668) and UbcH10 (SwissProt O00762) are described below. UbcH5 and UbcH10 thioester assays: Here, we describe an assay, based on time resolved fluorescence, to monitor the formation of the thioester intermediate between ubiquitin and the ubiquitin-conjugating enzymes UbcH5, respectively UbcH10. […]
pIC50: −log10 of the molar value.

I am curious: what pIC50 value has been reported for CCCc1csc2nc(C(=O)n3nc(C)cc3C)cn12 ? < 4.30

Same thing, different compound: Cc1cc(C)n(C(=O)c2cn3c(C)csc3n2)n1 < 4.30

* * *

# target desc: Cdc34-FLAG (ubiquitin conjugating enzyme Cdc34, SwissProt P49427) (Homo sapiens, UniProt P49427)
# Construct: GST with Factor Xa cleavage site (N, cleaved yes); made in house; host or cells: baculovirus, High Five insect cells
# Sequence (P49427 whole entry): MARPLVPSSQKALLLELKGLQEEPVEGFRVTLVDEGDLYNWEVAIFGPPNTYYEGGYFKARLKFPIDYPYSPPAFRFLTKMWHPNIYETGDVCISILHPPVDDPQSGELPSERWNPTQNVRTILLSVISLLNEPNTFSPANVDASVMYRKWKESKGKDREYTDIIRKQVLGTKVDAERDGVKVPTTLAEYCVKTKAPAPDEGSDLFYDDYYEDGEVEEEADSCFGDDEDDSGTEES
# protocol: Cdc34 thioester assay (time resolved fluorescence)
# Type: biochemical
# setup conditions: read-out: IC50 values as determined in the Cdc34 thioester assays
recorded metric: IC50

Field request: IC50 | item: Cc1cc(C)n(C(=O)c2cn3ccsc3n2)n1 ≤ 1000 nM
